B1: Paraneoplastic antigen-like protein 5 (Homo sapiens), Q96PV4 (parent)
chain: MALTLLEDWCKGMDMDPRKALLIVGIPMECSEVEIQDTVKAGLQPLCAYRVLGRMFRREDNAKAVFIELADTVNYTTLPSHIPGKGGSWEVVVKPRNPDDEFLSRLNYFLKDEGRSMTDVARALGCCSLPAESLDAEVMPQVRSPPLEPPKESMWYRKLKVFSGTASPSPGEETFEDWLEQVTEIMPIWQVSEVEKRRRLLESLRGPALSIMRVLQANNDSITVEQCLDALKQIFGDKEDFRASQFRFLQTSPKIGEKVSTFLLRLEPLLQKAVHKSPLSVRSTDMIRLKHLLARVAMTPALRGKLELLDQRGCPPNFLELMKLIRDEEEWENTEAVMKNKEKPSGRGRGASGRQARAEASVSAPQATVQARSFSDSSPQTIQGGLPPLVKRRRLLGSESTRGEDHGQATYPKAENQTPGREGPQAAGEELGNEAGAGAMSHPKPWET

- Variants of: B1
- Experimental parameters: with ccnc_human CCNC
Reported metric: effect of a mutation on the interaction

- R312Q: with no effect
- V274M: with no effect
- T261A: with no effect
